- Tested on: NCI-H1975
- protocol.notes: Tumor cell proliferation inhibition (CellTiter-Meiluncell Luminescent Cell Viability Assay), NCI-H1975
- experimental.setup: Homo sapiens, NCI-H1975, 96 h, read-out: inhibitory activity (IC50, nM) against tumor cells proliferation, H1975
This listing pairs compounds with measured IC50.

- compound: "O=C1CCC(N2Cc3cc(CN4C[C@H]5C[C@@H]4CN5c4cccc(Cl)c4Cl)ccc3C2=O)C(=O)N1 (some centres unmarked)"
  IC50: "50 to 100 nM"
- compound: "O=C1CCC(N2Cc3c(ccc(CN4CCC(c5noc6cc(F)ccc56)CC4)c3F)C2=O)C(=O)N1 (centres unmarked)"
  IC50: "50 to 100 nM"
- compound: "O=C1CCC(N2Cc3cc(CN4CCC(c5cccc(Br)c5)CC4)ccc3C2=O)C(=O)N1 (centres unmarked)"
  IC50: "10 to 50 nM"
- compound: "Cc1ccc(C2=CCN(Cc3ccc4c(c3)CN(C3CCC(=O)NC3=O)C4=O)CC2)s1 (centres unmarked)"
  IC50: "10 to 50 nM"
- compound: "O=C1CCC(N2Cc3cc(CN4CCC(N5CCc6cc(F)ccc65)CC4)ccc3C2=O)C(=O)N1 (centres unmarked)"
  IC50: "50 to 100 nM"
- compound: "O=C1CCC(N2Cc3cc(CN4CC=C(c5cncc(Cl)c5Cl)CC4)ccc3C2=O)C(=O)N1 (centres unmarked)"
  IC50: "5 to 10 nM"
- compound: "O=C1CCC(N2Cc3cc(CN4CC=C(c5ccsc5)CC4)ccc3C2=O)C(=O)N1 (centres unmarked)"
  IC50: "10 to 50 nM"
- compound: "O=C1CCC(N2Cc3cc(CN4CCN(c5cccc(F)c5F)CC4)ccc3C2=O)C(=O)N1 (centres unmarked)"
  IC50: "50 to 100 nM"
- compound: "O=C1CCC(N2Cc3cc(CN4CCN(c5ccc(Cl)c(Cl)c5)CC4)ccc3C2=O)C(=O)N1 (centres unmarked)"
  IC50: "50 to 100 nM"
- compound: "COc1cccc(N2CCN(Cc3ccc4c(c3)CN(C3CCC(=O)NC3=O)C4=O)CC2)c1 (centres unmarked)"
  IC50: "100 to 500 nM"
- compound: "O=C1CCC(N2Cc3cc(CN4CC=C(c5cccc(Cl)c5Cl)CC4)ccc3C2=O)C(=O)N1 (centres unmarked)"
  IC50: "1 to 5 nM"
- compound: "O=C1CCC(N2Cc3cc(CN4CC=C(c5cccs5)CC4)ccc3C2=O)C(=O)N1 (centres unmarked)"
  IC50: "10 to 50 nM"
- compound: "O=C1CCC(N2Cc3cc(CN4CCN(c5ccc(F)cn5)CC4)ccc3C2=O)C(=O)N1 (centres unmarked)"
  IC50: "100 to 500 nM"
- compound: "O=C1CCC(N2Cc3cc(CN4CCN(c5ccccc5)CC4)ccc3C2=O)C(=O)N1 (centres unmarked)"
  IC50: "50 to 100 nM"
- compound: "Cc1cccc(N2CCN(Cc3ccc4c(c3)CN(C3CCC(=O)NC3=O)C4=O)CC2)n1 (centres unmarked)"
  IC50: "100 to 500 nM"
- compound: "Cc1cscc1N1CCN(Cc2ccc3c(c2)CN(C2CCC(=O)NC2=O)C3=O)CC1 (centres unmarked)"
  IC50: "500 to 1000 nM"
- compound: "O=C1CCC(N2Cc3c(ccc(CN4CCN(c5cccc(Cl)c5Cl)CC4)c3F)C2=O)C(=O)N1 (centres unmarked)"
  IC50: "10 to 50 nM"
